Sourced from ChEMBL document CHEMBL4689842

System: Fibroblast
Assay: Multiplex assay against human fibroblast
Format: toxicity, cell-based
Details: 24 h, 10 µM, compound concentration 10 uM, replicate 1
ASSAY ENDPOINT: Population Membrane Permeable-Phenotype (%)

COMPOUND: O=c1cc(N2CCOCC2)oc2c(-c3cccc4c3sc3ccccc34)cccc12
NUMBER: 19
--
COMPOUND: CCCSc1nc(N[C@@H]2C[C@H]2c2ccc(F)c(F)c2)c2nnn([C@@H]3C[C@H](OCCO)[C@@H](O)[C@H]3O)c2n1 [TICAGRELOR]
NUMBER: 18
--
COMPOUND: CC(C)OC(=O)N1CCC(Oc2ncnc3c2cnn3-c2ccc(S(C)(=O)=O)cc2F)CC1
NUMBER: 30

###

Test system: Fibroblast
Assay: Multiplex assay against human fibroblast
Type: toxicity, cell-based
Details: 12 h, 10 µM, compound concentration 10 uM, replicate 2
Our labelling divides records by Total Cell Count into ranges: band A: < 60; band B: ≥ 60 and < 100; band C: ≥ 100

COMPOUND: O=c1[nH]c2ccccc2n1C1CCN(Cc2ccc(-c3[nH]c4cc5ncnc5cc4nc3-c3ccccc3)cc2)CC1
GROUP LABEL: band C

COMPOUND: CC(C)c1noc(N2CCC(COc3ccc(-c4ccc(S(C)(=O)=O)cc4)nc3)CC2)n1 [GSK-1292263]
GROUP LABEL: band B

COMPOUND: CC(C)Oc1ccccc1C(=O)Nc1ccccc1C(=O)Nc1cccc(S(=O)(=O)C(F)(F)F)c1
GROUP LABEL: band A

COMPOUND: C=CC(=O)Nc1cccc(Sc2nc(Nc3ccc(N4CCN(C)CC4)cc3)ncc2Cl)c1
GROUP LABEL: band C

COMPOUND: CC(C)NC(=O)N1CC[C@H](NC2=Nc3cc(F)ccc3N(CC(F)F)c3ccc(Cl)cc32)C1
GROUP LABEL: band B

COMPOUND: CNC(=O)Nc1ccc(-c2nc(N3CC4CCC(C3)O4)c3cnn(C4CCC5(CC4)OCCO5)c3n2)cc1
GROUP LABEL: band C

COMPOUND: Cc1cccc(CN2CCN(C(c3ccccc3)c3ccc(Cl)cc3)CC2)c1.Cl.Cl (centres undefined)
GROUP LABEL: band A

COMPOUND: COc1ccccc1CN[C@H]1C2CCN(CC2)[C@H]1C(c1ccccc1)c1ccccc1 [CP-96345]
GROUP LABEL: band B

###

Test system: U2OS
Test: Multiplex assay against U2OS
Type: toxicity, cell-based
Conditions: human, 48 h, 10 µM, compound concentration 10 uM, replicate 1
Mark 1 (yes) only for Population Fragmented Nuclei (%) values smaller than 10%; exact matches and larger values are 0 (no).

MOLECULE: Cc1ccc(C)c(Oc2ccncc2C(=O)N2CCN(C3CC3)c3ccccc32)c1
GROUP LABEL: 0 (no)
//
MOLECULE: COc1ccccc1CN[C@H]1C2CCN(CC2)[C@H]1C(c1ccccc1)c1ccccc1 [CP-96345]
GROUP LABEL: 0 (no)
//
MOLECULE: CNC(=O)Nc1ccc(-c2nc(N3CC4CCC(C3)O4)c3cnn(C4CCC5(CC4)OCCO5)c3n2)cc1
GROUP LABEL: 0 (no)
//
MOLECULE: CC(C)OC(=O)N1CCC(Oc2ncnc3c2cnn3-c2ccc(S(C)(=O)=O)cc2F)CC1
GROUP LABEL: 1 (yes)
//
MOLECULE: CCc1nn(CCCN2CCN(c3cccc(Cl)c3)CC2)c(=O)n1CCOc1ccccc1.Cl [NEFAZODONE HYDROCHLORIDE]
GROUP LABEL: 0 (no)
//
MOLECULE: CCc1ccc(OCc2ccccc2C(=O)Nc2ccc3nc(C)cc(N)c3c2)cc1.Cl
GROUP LABEL: 1 (yes)
//
MOLECULE: Cc1c[nH]c2nccc(Oc3c(F)cc(Nc4cc(Cl)nc(N)n4)cc3F)c12 [BAY-549]
GROUP LABEL: 0 (no)
//
MOLECULE: COc1cc(Nc2nccc(-c3cnn4nc(OC)ccc34)n2)cc(C(F)(F)F)c1
GROUP LABEL: 0 (no)
//
MOLECULE: Cc1ccc2c(c1)c1c(n2CCc2ccc(C)nc2)CCN(C)C1 [LATREPIRDINE]
GROUP LABEL: 0 (no)

###

Tested on: HEK-293T
Assay: Multiplex assay against HEK293T
Format: toxicity, cell-based
Settings: human, 12 h, 1 µM, compound concentration 1 uM, replicate 2
Measured Population Apoptotic (%) by item
ASSAY ENDPOINT: Population Apoptotic (%)

COMPOUND: CNC(=O)Nc1ccc(-c2nc(N3CC4CCC(C3)O4)c3cnn(C4CCC5(CC4)OCCO5)c3n2)cc1
MEASURED TARGET: HEK-293T
ASSAY ENDPOINT: Population Apoptotic (%)
NUMBER: 23
//
COMPOUND: Cc1ccc2c(c1)c1c(n2CCc2ccc(C)nc2)CCN(C)C1 [LATREPIRDINE]
MEASURED TARGET: HEK-293T
ASSAY ENDPOINT: Population Apoptotic (%)
NUMBER: 28
//
COMPOUND: CCOC(=O)Nc1cc(-c2ccc(C)c(NS(C)(=O)=O)c2)nn2c(C)nnc12
MEASURED TARGET: HEK-293T
ASSAY ENDPOINT: Population Apoptotic (%)
NUMBER: 12
//
COMPOUND: O=c1[nH]c2ccccc2n1C1CCN(Cc2ccc(-c3[nH]c4cc5ncnc5cc4nc3-c3ccccc3)cc2)CC1
MEASURED TARGET: HEK-293T
ASSAY ENDPOINT: Population Apoptotic (%)
NUMBER: 10
//
COMPOUND: C=CC(=O)Nc1cccc(Oc2nc(Nc3ccc(N4CCN(C)CC4)cc3OC)ncc2Cl)c1
MEASURED TARGET: HEK-293T
ASSAY ENDPOINT: Population Apoptotic (%)
NUMBER: 11
//
COMPOUND: Cc1c[nH]c2nccc(Oc3c(F)cc(Nc4cc(Cl)nc(N)n4)cc3F)c12
MEASURED TARGET: HEK-293T
ASSAY ENDPOINT: Population Apoptotic (%)
NUMBER: 13

###

System: HEK-293T
Test: Multiplex assay against HEK293T
Type: toxicity, cell-based
Conditions: human, 12 h, 1 µM, compound concentration 1 uM, replicate 1
Short version: Total Cell Count at least 300 is Criterion met, less is Criterion not met.

COMPOUND: CNC(=O)Nc1ccc2c(c1)[C@@]1(CC2)OC(=O)N(CC(=O)N(Cc2ccc(F)cc2)[C@@H](C)C(F)(F)F)C1=O [A-486]
GROUP LABEL: Criterion met
--
COMPOUND: CC(C)Oc1ccccc1C(=O)Nc1ccccc1C(=O)Nc1cccc(S(=O)(=O)C(F)(F)F)c1
GROUP LABEL: Criterion not met
--
COMPOUND: CCCSc1nc(N[C@@H]2C[C@H]2c2ccc(F)c(F)c2)c2nnn([C@@H]3C[C@H](OCCO)[C@@H](O)[C@H]3O)c2n1 [TICAGRELOR]
GROUP LABEL: Criterion not met
--
COMPOUND: O=c1cc(N2CCOCC2)oc2c(-c3cccc4c3sc3ccccc34)cccc12
GROUP LABEL: Criterion not met
--
COMPOUND: COc1cc2ncn(-c3cc(OCc4ccccc4C(F)(F)F)c(C(N)=O)s3)c2cc1OC [GW843682X]
GROUP LABEL: Criterion not met
--
COMPOUND: Cc1c[nH]c2nccc(Oc3c(F)cc(Nc4cc(Cl)nc(N)n4)cc3F)c12 [BAY-549]
GROUP LABEL: Criterion met

###

System: U2OS
Test: Multiplex assay against U2OS
Assay type: toxicity, cell-based
Settings: human, 48 h, 1 µM, compound concentration 1 uM, replicate 1
ASSAY ENDPOINT: Total Cell Count

COMPOUND: O=C(c1cc2c(cc1F)OC(c1ccc(F)cc1)(c1ccc(Cl)cc1Cl)O2)N1CCOCC1 (stereo not drawn)
MEASURED TARGET: U2OS
ASSAY ENDPOINT: Total Cell Count
NUMBER: 127

COMPOUND: CC1=C(C(=O)Nc2cc3cn[nH]c3cc2F)C(c2ccc(C(F)(F)F)cc2)CC(=O)N1 (stereo not drawn)
MEASURED TARGET: U2OS
ASSAY ENDPOINT: Total Cell Count
NUMBER: 181

COMPOUND: CC(C)OC(=O)N1CCC(Oc2ncnc3c2cnn3-c2ccc(S(C)(=O)=O)cc2F)CC1
MEASURED TARGET: U2OS
ASSAY ENDPOINT: Total Cell Count
NUMBER: 193

COMPOUND: COc1ccccc1CN[C@H]1C2CCN(CC2)[C@H]1C(c1ccccc1)c1ccccc1
MEASURED TARGET: U2OS
ASSAY ENDPOINT: Total Cell Count
NUMBER: 227

COMPOUND: CN1CCN(Cc2ccc(Nc3ncc(Cl)c(Nc4ccccc4S(=O)(=O)N(C)C)n3)cc2)CC1
MEASURED TARGET: U2OS
ASSAY ENDPOINT: Total Cell Count
NUMBER: 217

COMPOUND: Cc1ccc(C)c(Oc2ccncc2C(=O)N2CCN(C3CC3)c3ccccc32)c1
MEASURED TARGET: U2OS
ASSAY ENDPOINT: Total Cell Count
NUMBER: 139

COMPOUND: Cc1c[nH]c2nccc(Oc3c(F)cc(Nc4cc(Cl)nc(N)n4)cc3F)c12
MEASURED TARGET: U2OS
ASSAY ENDPOINT: Total Cell Count
NUMBER: 302

COMPOUND: COc1cc2ncn(-c3cc(OCc4ccccc4C(F)(F)F)c(C(N)=O)s3)c2cc1OC [GW843682X]
MEASURED TARGET: U2OS
ASSAY ENDPOINT: Total Cell Count
NUMBER: 160
